assay: Mouse PK data for selected compounds of the invention; type: in vivo; settings: plasma, dose 1 mg/kg
property.name: Cmax (ng/mL)

>>> print(df.to_string())
                                test_smiles  measurement_unit  val
0  COc1cc(C(=O)NC2CCN(C3CCOCC3)CC2)ccc1Nc1ncc2c(n1)N(C1CCCC1)CCC(=O)N2C             ng/mL  405
1  COc1cc(C(=O)N[C@H]2CC[C@H](N3CCN(C)CC3)CC2)ccc1Nc1ncc2c(n1)N(C1CCCC1)CC1(CC1)C(=O)N2C             ng/mL  453
2  COc1cc(C(=O)N[C@H]2CC[C@H](N3CCN(CC4CC4)CC3)CC2)ccc1Nc1ncc2c(n1)N(C1CCCC1)CC1(CC1)C(=O)N2C             ng/mL  478
